Molecular target: Estrogen receptor beta (Homo sapiens) (UniProt Q92731)
Sequence (Q92731 whole entry, looked up, the tested form may be a part): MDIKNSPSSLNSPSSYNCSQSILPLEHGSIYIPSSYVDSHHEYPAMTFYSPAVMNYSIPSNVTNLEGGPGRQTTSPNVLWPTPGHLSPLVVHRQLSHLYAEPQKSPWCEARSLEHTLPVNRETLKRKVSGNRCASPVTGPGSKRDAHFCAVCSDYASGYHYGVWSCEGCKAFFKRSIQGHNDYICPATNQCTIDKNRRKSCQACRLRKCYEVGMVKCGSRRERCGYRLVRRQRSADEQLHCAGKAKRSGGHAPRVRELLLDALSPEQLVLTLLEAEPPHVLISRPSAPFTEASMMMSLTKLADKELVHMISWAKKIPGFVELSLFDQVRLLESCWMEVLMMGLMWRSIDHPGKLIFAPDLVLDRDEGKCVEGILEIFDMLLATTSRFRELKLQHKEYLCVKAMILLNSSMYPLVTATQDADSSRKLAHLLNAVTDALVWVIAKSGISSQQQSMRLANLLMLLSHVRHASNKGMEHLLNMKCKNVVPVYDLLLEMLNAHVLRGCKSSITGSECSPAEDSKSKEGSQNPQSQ
Assay: OT_ER_ERbERb_1440: Odyssey Thera (OT) 24-hour HEK293T Protein-Complementation Assay for Estrogen Receptor-beta/-beta Homodimer (AID 2283380);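 note: fluorescence gain from ER beta LBD homodimer complementation read by laser scanning cytometry; scored as signal increase over DMSO baseline for both agonists and antagonists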
Active and inactive are the calls of the source. Rule for the calls: active = hit-call score of the fitted dose curve at least 0.9, where 1 is the maximum; inconclusive = response in the unintended direction; inactive = score below 0.9.
property: AC50

Worked cases, answers included:
-- ask Fill in the blank: the reported AC50 of CC(C)(c1ccccc1)c1ccc(O)c(C(C)(C)c2ccccc2)c1 is ____.
-- reply inactive

-- ask Fill in the blank: the reported AC50 of CN(C)N=O is ____.
-- reply inactive

-- ask Fill in the blank: the reported AC50 of Fc1ccc(C2(Cn3cncn3)OC2c2ccccc2Cl)cc1 (stereo not given) is ____.
-- reply 19.2 µM (active)

-- ask Fill in the blank: the reported AC50 of C=CCc1ccc(OC)cc1 is ____.
-- reply inactive

-- ask Fill in the blank: the reported AC50 of C=CC(=O)OCCCCCC(C)C is ____.
-- reply inactive

-- ask Fill in the blank: the reported AC50 of CCC(=O)C(CC(C)N(C)C)(c1ccccc1)c1ccccc1 (stereo not given) is ____.
-- reply inactive

-- ask Fill in the blank: the reported AC50 of C[C@H]1CCCC(=O)CCC/C=C/c2cc(O)cc(O)c2C(=O)O1 is ____.
-- reply 0.0449 µM (active)

-- ask Fill in the blank: the reported AC50 of COc1ccc(C=O)cc1OC is ____.
-- reply inactive

// each listed molecule needs a value for AC50
1. CCC(C)(C)c1ccc(O)c(C(C)(C)CC)c1
2. CCOP(=S)(OCC)SCSP(=S)(OCC)OCC
3. CC(C#N)CCC#N (stereo not given)
4. O=C(Nc1ccc2[nH]ccc2c1)c1cc2cc(F)ccc2n1Cc1cccc(F)c1
5. COC(=O)c1sccc1S(=O)(=O)NC(=O)Nc1nc(C)nc(OC)n1
6. CNC(=O)O/N=C/C(C)(C)S(C)=O (stereo not given)

-- reply
1: inactive; 2: 17.5 µM (active); 3: inactive; 4: inactive; 5: inactive; 6: inactive
